Let's look at some compounds and their measured Potency.
Assay: qHTS of pediatric cancer cell lines to identify multiple opportunities for drug repurposing: Confirmatory screen for TC32 cells (AID 1347118);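 note: potency is the fitted concentration of half-maximal effect; cells exposed to compound for 48 h before the read; nearly all actives have a fitted effect of over 65% in size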
Settings: TC32 Ewing sarcoma cells viability qHTS; series mostly up to 45.9 µM
Inconclusive results are not listed. Calls of active or inactive are those of the source. Calls come from the whole dose curve; as a rule, active = well fitted cell-killing curve with a large enough effect; inconclusive = small, poorly fitted or top-dose-only effect; inactive = no such curve, though single readings can be large or run the other way.
measured.quantity: Potency

> print(dat)
                            smiles.structure  measured.quantity     recorded.result
 1  CS(=O)(=O)N1CCN(Cc2cc3nc(-c4cccc5[nH]ncc45)nc(N4CCOCC4)c3s2)CC1            Potency    1.35 µM (active)
 2  COc1cccc(Nc2c(C(N)=O)cnc3c(C)cc(S(=O)(=O)c4cccc(C(=O)N(C)C)c4)cc23)c1            Potency   0.512 µM (active)
 3  Cc1ccc(C(N)=O)cc1Nc1nccc(-c2cn(C(C)C)c3cnccc23)n1            Potency    7.59 µM (active)
 4  NC(=O)Nc1cc(-c2cccc(F)c2)sc1C(=O)N[C@H]1CCCNC1            Potency   0.737 µM (active)
 5  C[C@@H](Oc1cc(-n2cnc3ccc(CN4CCN(C)CC4)cc32)sc1C(N)=O)c1ccccc1C(F)(F)F            Potency  0.0537 µM (active)
 6  CNC(=O)CN1CCC(Oc2cc3c(Nc4cccc(Cl)c4F)ncnc3cc2OC)CC1            Potency    1.04 µM (active)
 7  CC[C@H]1CN2CCc3cc(OC)c(OC)cc3[C@H]2C[C@@H]1C[C@@H]1NCCc2cc(OC)c(OC)cc21            Potency   0.233 µM (active)
 8  C[C@@]12O[C@@H](C[C@]1(O)CO)n1c3ccccc3c3c4c(c5c6ccccc6n2c5c31)CNC4=O            Potency   0.657 µM (active)
 9  Cc1ccc(C(=O)Nc2cccc(C(F)(F)F)c2)cc1-c1ccc2nc(NCCN3CCOCC3)ncc2c1            Potency    6.57 µM (active)
10  Cc1nc2cnc3ccc(C#Cc4cccnc4)cc3c2n1-c1ccc(C(C)(C)C#N)cc1            Potency   0.676 µM (active)
